test: Photophysical properties and fluorescence quantum yields of Si-rhodamines in PBS pH 7.4; format: physicochemical; details: increase (↑), triazole relative to the azide

[
  {
    "molecule": "CN(C)c1ccc2c(c1)[Si](C)(C)C1=CC(=[N+](C)C)C=CC1=C2c1cc(-n2cc(CCC(=O)NCCO)nn2)cc2c1OCCO2 [Compound 5-triazole]",
    "Change in Φfl": "9.5-fold ↑"
  },
  {
    "molecule": "COc1cc(C2=C3C=CC(=[N+](C)C)C=C3[Si](C)(C)c3cc(N(C)C)ccc32)c(OC)c(-n2cc(CCC(=O)NCCO)nn2)c1 [Compound 8-triazole]",
    "Change in Φfl": "3.2-fold ↑"
  },
  {
    "molecule": "COc1cc(OC)c(C2=C3C=CC(=[N+](C)C)C=C3[Si](C)(C)c3cc(N(C)C)ccc32)cc1N=[N+]=[N-] [Compound 9-N3, 3-Azido-4,6-dimethoxy-Si-rhodamine]",
    "Change in Φfl": "48 fold"
  },
  {
    "molecule": "CN(C)c1ccc2c(c1)[Si](C)(C)C1=CC(=[N+](C)C)C=CC1=C2c1ccc(-n2cc(CCC(=O)NCCO)nn2)c2ccccc12 [Compound 1-triazole]",
    "Change in Φfl": "5.0-fold ↑"
  }
]

---

experiment: Photophysical properties and fluorescence quantum yields of Si-rhodamines in PBS pH 7.4; type: physicochemical; details: increase (↑), triazole relative to the azide

[
  {
    "compound": "COc1cc(C)c(C2=C3C=CC(=[N+](C)C)C=C3[Si](C)(C)c3cc(N(C)C)ccc32)cc1-n1cc(CCC(=O)NCCO)nn1",
    "Change in Φfl": "3.7-fold ↑"
  },
  {
    "compound": "COc1cc(OC)c(-n2cc(CCC(=O)NCCO)nn2)cc1C1=C2C=CC(=[N+](C)C)C=C2[Si](C)(C)c2cc(N(C)C)ccc21",
    "Change in Φfl": "48-fold ↑"
  },
  {
    "compound": "COc1ccc(-n2cc(CCC(=O)NCCO)nn2)cc1C1=C2C=CC(=[N+](C)C)C=C2[Si](C)(C)c2cc(N(C)C)ccc21",
    "Change in Φfl": "2.3-fold ↑"
  },
  {
    "compound": "CN(C)c1ccc2c(c1)[Si](C)(C)C1=CC(=[N+](C)C)C=CC1=C2c1cc(-n2cc(CCC(=O)NCCO)nn2)cc2[nH]ccc12",
    "Change in Φfl": "1.8-fold ↑"
  },
  {
    "compound": "CN(C)c1ccc2c(c1)[Si](C)(C)C1=CC(=[N+](C)C)C=CC1=C2c1cc(-n2cc(CCC(=O)NCCO)nn2)ccc1N1CCOCC1",
    "Change in Φfl": "1.1-fold ↑"
  },
  {
    "compound": "COc1cc(-n2cc(CCC(=O)NCCO)nn2)cc(C2=C3C=CC(=[N+](C)C)C=C3[Si](C)(C)c3cc(N(C)C)ccc32)c1OC",
    "Change in Φfl": "4.6-fold ↑"
  }
]

---

test: Photophysical properties and fluorescence quantum yields of Si-rhodamines in PBS pH 7.4; format: physicochemical; conditions: decrease (↓), amine relative to the azide
Items are presented alongside their recorded Change in Φfl.
measured-property: Change in Φfl

[
  {
    "compound": "CN(C)c1ccc2c(c1)[Si](C)(C)C1=CC(=[N+](C)C)C=CC1=C2c1cc(N)cc2c1OCCO2",
    "data-value": "21-fold ↓"
  },
  {
    "compound": "CN(C)c1ccc2c(c1)[Si](C)(C)C1=CC(=[N+](C)C)C=CC1=C2c1cc(N)ccc1N1CCOCC1",
    "data-value": "1.4-fold ↓"
  },
  {
    "compound": "COc1cc(N)cc(C2=C3C=CC(=[N+](C)C)C=C3[Si](C)(C)c3cc(N(C)C)ccc32)c1OC",
    "data-value": "58-fold ↓"
  },
  {
    "compound": "COc1cc(OC)c(C2=C3C=CC(=[N+](C)C)C=C3[Si](C)(C)c3cc(N(C)C)ccc32)cc1N",
    "data-value": "3.0-fold ↓"
  },
  {
    "compound": "CN(C)c1ccc2c(c1)[Si](C)(C)C1=CC(=[N+](C)C)C=CC1=C2c1ccc(N)c2ccccc12",
    "data-value": "24-fold ↓"
  },
  {
    "compound": "COc1cc(C)c(C2=C3C=CC(=[N+](C)C)C=C3[Si](C)(C)c3cc(N(C)C)ccc32)cc1N",
    "data-value": "45-fold ↓"
  },
  {
    "compound": "COc1ccc(N)cc1C1=C2C=CC(=[N+](C)C)C=C2[Si](C)(C)c2cc(N(C)C)ccc21",
    "data-value": "32-fold ↓"
  },
  {
    "compound": "COc1cc(N)c(OC)c(C2=C3C=CC(=[N+](C)C)C=C3[Si](C)(C)c3cc(N(C)C)ccc32)c1",
    "data-value": "41-fold ↓"
  },
  {
    "compound": "CN(C)c1ccc2c(c1)[Si](C)(C)C1=CC(=[N+](C)C)C=CC1=C2c1cc(N)cc2[nH]ccc12",
    "data-value": "5.5-fold ↓"
  }
]

---

assay: Photophysical properties and fluorescence quantum yields of Si-rhodamines in PBS pH 7.4; assay type: physicochemical; settings: cresyl violet in methanol as standard
Items are presented alongside their recorded Φfl.

[
  {
    "compound": "COc1cc(C)c(C2=C3C=CC(=[N+](C)C)C=C3[Si](C)(C)c3cc(N(C)C)ccc32)cc1N [Compound 7-NH2]",
    "Φfl": 0.0015
  },
  {
    "compound": "CN(C)c1ccc2c(c1)[Si](C)(C)C1=CC(=[N+](C)C)C=CC1=C2c1cc(N)cc2[nH]ccc12 [Compound 4-NH2]",
    "Φfl": 0.00088
  },
  {
    "compound": "CN(C)c1ccc2c(c1)[Si](C)(C)C1=CC(=[N+](C)C)C=CC1=C2c1cc(N)cc2c1OCCO2 [Compound 5-NH2]",
    "Φfl": 0.00093
  },
  {
    "compound": "COc1cc(C)c(C2=C3C=CC(=[N+](C)C)C=C3[Si](C)(C)c3cc(N(C)C)ccc32)cc1N=[N+]=[N-] [Compound 7-N3]",
    "Φfl": 0.066
  }
]

---

test: Photophysical properties and fluorescence quantum yields of Si-rhodamines in PBS pH 7.4; assay type: physicochemical
measured-property: λabs (nm)

[
  {
    "compound": "CN(C)c1ccc2c(c1)[Si](C)(C)C1=CC(=[N+](C)C)C=CC1=C2c1cc(-n2cc(CCC(=O)NCCO)nn2)cc2c1OCCO2",
    "measured-property": "λabs",
    "data-value": 656
  },
  {
    "compound": "COc1cc(C)c(C2=C3C=CC(=[N+](C)C)C=C3[Si](C)(C)c3cc(N(C)C)ccc32)cc1-n1cc(CCC(=O)NCCO)nn1",
    "measured-property": "λabs",
    "data-value": 652
  },
  {
    "compound": "COc1cc(C)c(C2=C3C=CC(=[N+](C)C)C=C3[Si](C)(C)c3cc(N(C)C)ccc32)cc1N",
    "measured-property": "λabs",
    "data-value": 648
  },
  {
    "compound": "CN(C)c1ccc2c(c1)[Si](C)(C)C1=CC(=[N+](C)C)C=CC1=C2c1cc(-n2cc(CCC(=O)NCCO)nn2)ccc1N1CCOCC1",
    "measured-property": "λabs",
    "data-value": 663
  },
  {
    "compound": "CN(C)c1ccc2c(c1)[Si](C)(C)C1=CC(=[N+](C)C)C=CC1=C2c1cc(-n2cc(CCC(=O)NCCO)nn2)cc2[nH]ccc12",
    "measured-property": "λabs",
    "data-value": 654
  },
  {
    "compound": "COc1cc(N)c(OC)c(C2=C3C=CC(=[N+](C)C)C=C3[Si](C)(C)c3cc(N(C)C)ccc32)c1",
    "measured-property": "λabs",
    "data-value": 654
  },
  {
    "compound": "CN(C)c1ccc2c(c1)[Si](C)(C)C1=CC(=[N+](C)C)C=CC1=C2c1cc(N=[N+]=[N-])ccc1N1CCOCC1",
    "measured-property": "λabs",
    "data-value": 656
  },
  {
    "compound": "CN(C)c1ccc2c(c1)[Si](C)(C)C1=CC(=[N+](C)C)C=CC1=C2c1cc(N)cc2c1OCCO2",
    "measured-property": "λabs",
    "data-value": 653
  },
  {
    "compound": "COc1cc(OC)c(C2=C3C=CC(=[N+](C)C)C=C3[Si](C)(C)c3cc(N(C)C)ccc32)cc1N",
    "measured-property": "λabs",
    "data-value": 650
  },
  {
    "compound": "COc1cc(C2=C3C=CC(=[N+](C)C)C=C3[Si](C)(C)c3cc(N(C)C)ccc32)c(OC)c(-n2cc(CCC(=O)NCCO)nn2)c1",
    "measured-property": "λabs",
    "data-value": 657
  },
  {
    "compound": "COc1cc(-n2cc(CCC(=O)NCCO)nn2)cc(C2=C3C=CC(=[N+](C)C)C=C3[Si](C)(C)c3cc(N(C)C)ccc32)c1OC",
    "measured-property": "λabs",
    "data-value": 656
  },
  {
    "compound": "COc1cc(OC)c(C2=C3C=CC(=[N+](C)C)C=C3[Si](C)(C)c3cc(N(C)C)ccc32)cc1N=[N+]=[N-]",
    "measured-property": "λabs",
    "data-value": 654
  },
  {
    "compound": "COc1ccc(-n2cc(CCC(=O)NCCO)nn2)cc1C1=C2C=CC(=[N+](C)C)C=C2[Si](C)(C)c2cc(N(C)C)ccc21",
    "measured-property": "λabs",
    "data-value": 655
  }
]
